The following compounds are listed with their measured melting point values.

Here are 5 compounds together with their reported answers.
>>> value("Cc1cn2nc(-c3cc(=O)n4cc(N5CC(N6CCCC6)C5)ccc4n3)cc2c(C)n1 [Compound 759]")
"235 to 237 °C"
>>> value("CCc1nc(C)cn2nc(-c3cc(=O)n4cc(N5CCN(CC)CC5)ccc4n3)cc12 [Compound 548]")
"250 to 252 °C"
>>> value("Cc1nc2cc(-c3cc(=O)n4cc(N5CCN[C@@H](C)C5)ccc4n3)ccc2s1 [Compound 135]")
"174 to 180 °C"
>>> value("CCc1nc(C)cn2nc(-c3cc(=O)n4cc(N5CCN(C6CCC6)[C@H](C)C5)ccc4n3)cc12 [Compound 645]")
"261 to 264 °C"
>>> value("Cc1cn2cc(-c3cc(=O)n4cc(N5CCC(N(C)C)CC5)ccc4n3)cc(F)c2n1 [Compound 297]")
"250 to 257 °C"

Looking up COc1ccc(-c2cc(=O)n3cc(C4=CCNCC4)cc(C)c3n2)cc1F [Compound 312] , I see its melting point listed as 211 to 215 °C

GET /value?item= Cc1cn2cc(-c3cc(=O)n4cc(N5CCNCC5)ccc4n3)cc(C3CC3)c2n1 [Cpd 714] &field=melting point returns 274 to 277 °C

Entry CCN1C[C@@H]2C[C@H]1CN2c1ccc2nc(-c3cc4c(C)nc(C)cn4n3)cc(=O)n2c1 [Compound 401] ; melting point = 175 to 177 °C

Record CCN1CCN(c2ccc3nc(-c4ccn5cc(C)nc5c4)cc(=O)n3c2)CC1 [Compound 558] , field melting point: 219 to 222 °C

###

melting point: recorded values

Example entries and their recorded answers appear below.
>>> value("COc1ccc(-c2cc(=O)n3cc(N4CCN(C)CC4)cc(C)c3n2)cc1OC [Compound 344]")
"191 to 198 °C"
>>> value("CCN1CCC(c2cn3c(=O)cc(-c4ccc5nc(C)cn5c4)nc3cn2)CC1 [Compound 580]")
"255 to 258 °C"
>>> value("Cc1cn2cc(-c3cc(=O)n4cc(N5CCC(N6CCCC6)CC5)ccc4n3)ccc2n1 [Compound 437]")
"230 to 232 °C"

Now look at this one.
// field: melting point; key: Cc1cn2nc(-c3cc(=O)n4cc(C#CCN)ccc4n3)cc2c(C)n1 [Compound 740] ; value = 242 to 244 °C

###

Test Readout: melting point

>>> value("CCc1cc(-c2cc(=O)n3cc(C4CCN(CCO)CC4)ccc3n2)cn2cc(C)nc12")
"244 to 247 °C"
>>> value("CCCc1nc(C)cn2nc(-c3cc(=O)n4cc(N5CCN[C@@H](C)C5)ccc4n3)cc12")
"195 to 197 °C"

melting point reported for this compound Cc1cn2nc(-c3cc(=O)n4cc(N5CC(CN(C)C)C5)ccc4n3)cc2c(C)n1 : 228 to 230 °C

Quick note, melting point for COc1cc(-c2cc(=O)n3cc(N4CCNCC4)ccc3n2)ccc1F landed at 170 to 172 °C

Please fill in: melting point reported for CCc1nc(C)cn2nc(-c3cc(=O)n4cc(C5CCN(CC)CC5)ccc4n3)cc12 = 194 to 196 °C

// field: melting point; key: CCNC1CCN(c2cc(C)c3nc(-c4cc5c(C)nc(C)cn5n4)cc(=O)n3c2)CC1 ; value = 228 to 236 °C

###

system: SMN2 minigene mRNA (SMN2-A minigene) in HEK293H cells; test: SMN2 minigene mRNA splicing RT-qPCR assay in cultured cells; type: cell-based, human; settings: Homo sapiens, HEK293-H; concentration increasing full length SMN2 mRNA 1.5-fold relative to vehicle-treated cells; HEK293H cells with SMN2-A minigene, 24 hours, 7-point concentration data; read-out: EC1.5x for production of full length SMN2 mRNA
Test Readout: EC (1.5-fold increase)

>>> value("CCc1nc(C)cn2nc(-c3cc(=O)n4cc(N5CCN(C(C)C)[C@H](C)C5)ccc4n3)cc12 [Compound 643]")
"0.1 to 0.3 µM"
>>> value("Cc1cn2cc(-c3cc(=O)n4cc(C5=CCNCC5)ccc4n3)ccc2n1 [Compound 429]")
"< 0.1 µM"
>>> value("Cc1cn2cc(-c3cc(=O)n4cc(N5CCN6CCCC6(C)C5)ccc4n3)cc(C)c2n1 (stereo not drawn) [Compound 821]")
"< 0.1 µM"
>>> value("Cc1nc2ccc(-c3cc(=O)n4cc(N5CCNCC5)ccc4n3)cc2s1 [Compound 219]")
"< 0.1 µM"
>>> value("Cc1nc(C2=CCNCC2)cn2c(=O)cc(-c3ccc4nn(C)cc4c3)nc12 [Compound 791]")
"< 0.1 µM"

EC (1.5-fold increase) in this record for Cc1nc2ccc(-c3cc(=O)n4cc(N5CCC(N)CC5)ccc4n3)cc2s1 [Compound 381] : 0.1 to 0.3 µM

// recorded EC (1.5-fold increase) for COCCN1CCN(c2ccc3nc(-c4cc(F)c5nc(C)cn5c4)cc(=O)n3c2)C[C@@H]1C [Compound 538] : < 0.1 µM

Sure, the documented EC (1.5-fold increase) for CCc1cc(C2CCN(CC)CC2)cn2c(=O)cc(-c3ccc(OC)c(OC)c3)nc12 [Compound 436] is 0.3 to 1 µM

Short answer for COc1ccc(-c2cc(=O)n3cc(N4CCN[C@@H](C)C4)ccc3n2)cc1OC(F)F [Compound 101] : EC (1.5-fold increase) was 0.3 to 1 µM

The measured EC (1.5-fold increase) associated with CCc1nc(C)cn2nc(-c3cc(=O)n4cc(C5CCN(C6CCC6)CC5)cc(C)c4n3)cc12 [Compound 792] reads < 0.1 µM

Record COc1ccc(-c2cc(=O)n3cc(C4=CCN(C5CC5)CC4)cc(C)c3n2)cc1OC [Compound 390] , field EC (1.5-fold increase): 0.3 to 1 µM

Note to self: EC (1.5-fold increase) recorded for COc1ccc(-c2cc(=O)n3cc(N4CCN[C@H](C)C4)cc(C)c3n2)cc1OC [Compound 314] was < 0.1 µM

For Cc1cn2cc(-c3cc(=O)n4cc(C5CCN(C(C)C)CC5)ccc4n3)cc(C)c2n1 [Compound 616] the compound record lists EC (1.5-fold increase) as < 0.1 µM

Field EC (1.5-fold increase) (entry COc1ncc(-c2cc(=O)n3cc(N4CCN[C@@H](C)C4)ccc3n2)cc1F [Compound 173] ) reads 0.3 to 1 µM

Form: compound = Cc1nc2ccc(-c3cc(=O)n4cc(N5CCCN(C)CC5)ccc4n3)cc2s1 [Compound 254] ; EC (1.5-fold increase) = 0.1 to 0.3 µM

EC (1.5-fold increase) recorded for this compound, Cc1cn2nc(-c3cc(=O)n4cc(N5CCC(N6CCN(C)CC6)CC5)ccc4n3)cc2c(C)n1 [Compound 427] , is 1 to 3 µM

Looking up Cc1cn2nc(-c3cc(=O)n4cc(N5C[C@@H](C)N(C)[C@@H](C)C5)cc(C)c4n3)cc2c(C)n1 [Compound 564] , I found its EC (1.5-fold increase) recorded as 1 to 3 µM

Short answer for Cc1cn2nc(-c3cc(=O)n4cc(N5CCN(CCO)CC5)ccc4n3)cc2c(C)n1 [Compound 531] : EC (1.5-fold increase) was 0.1 to 0.3 µM

// recorded EC (1.5-fold increase) for Cc1cn2cc(-c3cc(=O)n4cc(N5CCC(N)CC5)ccc4n3)cc(F)c2n1 [Compound 273] : < 0.1 µM

Measured EC (1.5-fold increase), Cc1cn2nc(-c3cc(=O)n4cc(C5=CCNCC5)ccc4n3)cc2cn1 [Compound 473] : < 0.1 µM

Measured EC (1.5-fold increase), Cc1cn2cc(-c3cc(=O)n4cc(N5CCN(C)CC5)ccc4n3)cc(C#N)c2n1 [Compound 807] : < 0.1 µM

EC (1.5-fold increase) reported for this compound COc1ccc(-c2cc(=O)n3cc(C4=CCN(C)CC4)c(C)cc3n2)cc1OC [Compound 391] : 1 to 3 µM

Recorded result, O=c1cc(-c2cc(F)c(O)c(F)c2)nc2ccc(N3CCNCC3)cn12 [Compound 71] , EC (1.5-fold increase): 1 to 3 µM

Data point: Cc1cn(-c2cc(=O)n3cc(N4CCN[C@@H](C)C4)ccc3n2)cn1 [Compound 180] ; EC (1.5-fold increase) = 1 to 3 µM

For record COc1c(F)cc(-c2cc(=O)n3cc(N4CCNCC4)ccc3n2)cc1F [Compound 183] the listed EC (1.5-fold increase) is 1 to 3 µM

So for Cc1cn2nc(-c3cc(=O)n4cc(N5CCC6NCCC6C5)ccc4n3)cc2c(C)n1 (stereo not drawn) [Compound 515] , the logged EC (1.5-fold increase) turned out to be < 0.1 µM

Sure, the documented EC (1.5-fold increase) for Cn1ncc2cc(-c3cc(=O)n4cc(C5CCN(CCO)CC5)ccc4n3)ccc21 [Compound 605] is 0.3 to 1 µM
